Answer each item with its documented intrinsic clearance, rat liver microsomes.
Respond numerically; units are L/h/kg and should not be typed.

Q: Report intrinsic clearance, rat liver microsomes for CC1(C)CC(=O)C2=C(C1)NC(=O)CC2c1ccc(Br)cc1 (stereo unspecified) please.
Result: 14.8

Q: Report intrinsic clearance, rat liver microsomes for Cc1cnn(CC2CC2)c1NC(=O)/C=C/c1ccccc1 please.
Result: 19.1

Q: Report intrinsic clearance, rat liver microsomes for CC(C)N1CCN(CCCSc2ccccn2)CC1 please.
Result: 65

Q: Report intrinsic clearance, rat liver microsomes for Cc1ccc2oc([C@H]3CCN(Cc4ccc(C#N)cc4)C3)nc2c1 please.
Result: 21

* * *

Answer each item with its documented intrinsic clearance, rat liver microsomes.
Respond numerically; units are mL/min/kg and should not be typed.

Q: Report intrinsic clearance, rat liver microsomes for O=C1Nc2ccccc2O[C@H]2C[C@@H]1N(Cc1cccnc1)C2 please.
Result: 281

Q: Report intrinsic clearance, rat liver microsomes for CCCC(=O)Nc1ccc(C(=O)N(C)C)cc1 please.
Result: 50.7

Q: Report intrinsic clearance, rat liver microsomes for CC(=O)NCCCC(=O)Nc1ccc(Oc2ccccc2Cl)cc1 please.
Result: 722

Q: Report intrinsic clearance, rat liver microsomes for Cc1nc(CN2CCC(CNC(=O)COc3ccccc3Cl)CC2)c[nH]1 please.
Result: 58.1

Q: Report intrinsic clearance, rat liver microsomes for Cc1cc(C)c(NC(=O)c2cc(Cl)ccc2F)c(C)n1 please.
Result: 40

Q: Report intrinsic clearance, rat liver microsomes for CNc1nc(C)nc(N[C@H]2CCC[C@@H](C(=O)NCc3ccc(C#N)cc3C(F)(F)F)C2)n1 please.
Result: 91.3

Q: Report intrinsic clearance, rat liver microsomes for N#CC1(CN2CCc3cc(-c4ccccc4)oc3C2)CC1 please.
Result: 503

Q: Report intrinsic clearance, rat liver microsomes for CC(C)(C)c1cc(C(=O)CSc2nncn2-c2ccccc2)cc(C(C)(C)C)c1O please.
Result: 46.6

Q: Report intrinsic clearance, rat liver microsomes for O=C(Nc1ccc2c(c1)N(CC(F)F)C(=O)CS2)C1CC=CC1 please.
Result: 391

Q: Report intrinsic clearance, rat liver microsomes for O=C(Nc1cccc(-c2nncn2C2CC2)c1)c1cc(-n2cnc(C3CC3)c2)ccn1 please.
Result: 37.4

Q: Report intrinsic clearance, rat liver microsomes for CCC[C@@H]1C[C@@H](C(=O)N[C@@H]([C@H]2O[C@H](SC)[C@H](O)[C@@H](O)[C@@H]2O)[C@@H](C)O)N(C)C1 please.
Result: 88.3

Q: Report intrinsic clearance, rat liver microsomes for c1ccc(CCc2n[nH]c(-c3cccc4cnccc34)n2)cc1 please.
Result: 443

Q: Report intrinsic clearance, rat liver microsomes for CO[C@H]1[C@H](C2(C)O[C@@H]2CC=C(C)C)[C@]2(CC[C@H]1OC(=O)/C=C/c1ccc(OCCN(C)C)cc1)CO2 (some centres not stated) please.
Result: 795

Q: Report intrinsic clearance, rat liver microsomes for O=C(Nc1ccc(N2CCCC2)cn1)c1ccc(-c2cnco2)cc1 please.
Result: 190

Q: Report intrinsic clearance, rat liver microsomes for COc1cc(N2CCN(C)CC2)ccc1Nc1ncc2c(n1)N(C)c1ccccc1C(=O)N2 please.
Result: 131

Q: Report intrinsic clearance, rat liver microsomes for Cc1cccc(OC2CN(C(=O)Cn3c(C)nn(-c4ccccc4)c3=O)C2)c1 please.
Result: 103
